Value source: paper PMC10051656

Give measured IC50 for each item. Keep answers brief.
test: MTT cell viability / cytotoxicity in Vero E6 cells; conditions: African green monkey, Cytotoxicity (Vero E6) (IC50, μM), Vero E6 cells, MTT test
Quick note: give the figure in µM, leave out the unit.

stdin: Give the measured IC50 for CC(=O)c1ccc(-n2cc(COc3ccc(/C=C4\C(=O)N(c5ccc(Cl)cc5)N=C4C)cc3)nn2)cc1 [6c]
stdout: 92.1

stdin: Quick one: give measured IC50 for CC1=NN(c2ccc(Cl)cc2)C(=O)/C1=C\c1ccc(OCc2cn(CC(=O)Nc3ccc(F)cc3)nn2)cc1 [6j]
stdout: 156

stdin: In one line, give reported IC50 of the entry CC1=NN(c2ccc(Cl)cc2)C(=O)/C1=C\c1ccc(OCc2cn(-c3ccc(Cl)cc3)nn2)cc1 [6f] .
stdout: 51.4

stdin: Respond only with IC50 recorded for CC1=NN(c2ccc(Cl)cc2)C(=O)/C1=C\c1ccc(OCc2cn(-c3ccc(F)cc3)nn2)cc1 [6d]
stdout: 172

stdin: Supply recorded IC50 for CC1=NN(c2ccc(Cl)cc2)C(=O)/C1=C\c1ccc(OCc2cn(CC(=O)NCc3ccc(Cl)cc3)nn2)cc1 [6n] here.
stdout: 23.1
